Target Or System: one or more of HDAC-1, HDAC-2, HDAC-3, HDAC-4, HDAC-5, HDAC-6, HDAC-7, HDAC-8, HDAC-9, HDAC-10 and HDAC-11
Assay Summary: Inhibition of Histone Deacetylase Enzymatic Activity (Boc-Lys(Ac)-AMC substrate, Fluor-de-Lys developer)
Assay type: biochemical
Measurement Setup: Table 10; read-out: HDAC Inhibition (IC50 μM) HDAC Enzyme
In this section, each of the compounds is paired with its reported IC50.

Illustrative cases are given below, each with its answer.
O=C(NO)c1ccc(CN2Cc3ccccc3Oc3ccccc32)cc1; < 0.05 µM
O=C(C=C1c2ccccc2CCc2ccccc21)NO; 1 to 10 µM
O=C(NO)c1ccc(OCCN2C(=O)c3cc(F)ccc3Oc3ccccc32)cc1; < 0.05 µM
O=C(CCCCCCn1c(=O)c2ccccc2c2ccccc21)NO; < 0.05 µM
O=C(NO)c1cc2c(cn1)[nH]c1ccccc12; 1 to 10 µM

Lab note: measured IC50 of "O=C(CCCCCC(=O)N1c2ccccc2C=Cc2ccccc21)NO" was < 0.05 µM

// IC50 lookup, compound = "O=C(/C=C/c1ccc(CN2C(=O)CN=C(c3ccccc3)c3ccccc32)cc1)NO" , result: 0.05 to 0.1 µM

Entry under test: "O=C(NO)c1cnc(N2CCC[C@H]2c2nc3ccccc3[nH]2)nc1" . Its IC50 was 0.1 to 1 µM

"O=C(CCCCCCCON=C1c2ccccc2CCc2ccccc21)NO" yielded IC50 of 0.1 to 1 µM

Quick note, IC50 for "O=C(NO)c1cnc(OC(c2ccc(F)cc2)c2ccc(F)cc2)nc1" landed at 0.1 to 1 µM

For record O=C(NO)c1ccc(CNC2c3ccccc3COc3ccccc32)cc1 (centres unmarked) the listed IC50 is 0.1 to 1 µM

Value of IC50 reported for the compound "O=C(NO)c1cnc(N2CCCN(c3ncc(C(F)(F)F)cc3Cl)CC2)nc1" is < 0.05 µM

Measured IC50 of "O=C(NO)c1ccc(/C=C/CN2C(=O)c3ccccc3Oc3ccccc32)cc1" : 0.05 to 0.1 µM

====

Measured Speed 8 to 10 (concentration) 30 uM by item
Test system: Drosophila Huntington's Disease model flies
Assay Summary: In Vivo Drosophila Fly Assay for Treatment of Huntington's Disease (automated climbing behavioral assay)
Parameters: species or system Drosophila melanogaster
Measurement Setup: effect size of late speed (days 8-10) vs DMSO-carrier control; 30 uM
Respond numerically, and do not add a unit to the figure.

Known Speed 8 to 10 (concentration) 30 uM results, listed for orientation:
O=C(NO)c1cnc(N2CC3CC2CN3c2cccc(C(F)(F)F)n2)nc1 (stereo not shown); 0.291
Cc1cccc(N2CC3CC2CN3c2ncc(C(=O)NO)cn2)c1 (stereo not shown); 0.036
CC(C)OC(=O)N1CC2CC1CN2c1ncc(C(=O)NO)cn1 (stereo not shown); 0.338
O=C(NO)c1ccc(C2=Nc3ccccc3Oc3ccc(F)cc32)cc1 [drawing 821]; −0.108

Record O=C(NO)c1cnc(N2CC3CC2CN3c2cc(C(F)(F)F)ccn2)nc1 (stereo not shown) . Reported Speed 8 to 10 (concentration) 30 uM: 0.087

The compound listed as O=C(NO)c1cnc(N2CC3CC2CN3c2ccc3c(c2)OC(F)(F)O3)nc1 (stereo not shown) has a reported Speed 8 to 10 (concentration) 30 uM of 0.22

Lab note: measured Speed 8 to 10 (concentration) 30 uM of O=C(NO)c1cnc(N2CC3CC2CN3c2cccc(OC(F)(F)F)c2)nc1 (stereo not shown) was 0.15

Form: compound = O=C(NO)c1cnc(N2CC3CC2CN3c2cccc(C(F)(F)F)c2)nc1 (stereo not shown) ; Speed 8 to 10 (concentration) 30 uM = −0.14

// Cc1ccc(N2CC3CC2CN3c2ncc(C(=O)NO)cn2)cc1 (stereo not shown) : Speed 8 to 10 (concentration) 30 uM value = −0.134

Measured Speed 8 to 10 (concentration) 30 uM, O=C(NO)c1cnc(N2CC3CC2CN3c2cccc(SC(F)(F)F)c2)nc1 (stereo not shown) : 0.28

====

# maps each entry to its IC50
Target Or System: one or more of HDAC-1, HDAC-2, HDAC-3, HDAC-4, HDAC-5, HDAC-6, HDAC-7, HDAC-8, HDAC-9, HDAC-10 and HDAC-11
Assay Summary: Inhibition of Histone Deacetylase Enzymatic Activity (Boc-Lys(Ac)-AMC substrate, Fluor-de-Lys developer)
Type: biochemical
Measurement Setup: Table 8; read-out: HDAC Inhibition (IC50 μM) HDAC Enzyme

Here are 10 compounds together with their reported answers.
O=C(NO)c1ccc(C2=Nc3cncnc3N3CCc4cccc2c43)cc1; 0.1 to 1 µM
CCN1c2ccccc2N=C(c2ccc(C(=O)NO)cc2)c2ccccc21; 0.05 to 0.1 µM
O=C(NO)c1ccc(C2=Nc3ccccc3Oc3cnccc32)cc1; 0.1 to 1 µM
O=C(NO)c1ccc(C2=Nc3c(F)cccc3Oc3ccccc32)cc1; 0.05 to 0.1 µM
O=C(NO)c1ccc(C2=Nc3ccccc3Oc3c(O)cccc32)cc1; 0.05 to 0.1 µM
O=C(NO)c1ccc(C2=Nc3cc(C(F)(F)F)ccc3Oc3ccccc32)cc1; 0.1 to 1 µM
CC(C)N1c2ccccc2N=C(c2ccc(C(=O)NO)cc2)c2ccccc21; < 0.05 µM
Cc1cccc2c1Oc1ccccc1C(c1ccc(C(=O)NO)cc1)=N2; 0.1 to 1 µM
CN1c2ccccc2Oc2ccccc2C1c1ccc(C(=O)NO)cc1 (stereo not shown); 0.1 to 1 µM
O=C(NO)c1ccc(C2=Nc3ccccc3Oc3ccccc32)cc1; < 0.05 µM

The compound listed as "O=C(NO)c1ccc(C2=Nc3ccccc3Oc3ccc(Cl)cc32)cc1" has a reported IC50 of < 0.05 µM

====

Test system: HDAC activity in primary mouse cortical cultures
Assay Summary: Whole-Cell Histone Deacetylase (HDAC) Inhibition Assay in Primary Mouse Cortical Cultures
Format: cell-based
Measurement Setup: whole-cell (WC), mouse cortical neurons; Table 10; read-out: HDAC Inhibition (IC50 μM) WC mouse cortical neurons
Endpoint Name: IC50

Known results for compounds:
O=C(NO)c1ccc(N2C(=O)c3ccccc3Oc3ccccc32)cc1; > 15 µM
O=C(NO)c1cnc(NCC2c3ccccc3CCc3ccccc32)nc1; 5 to 15 µM
O=C(CCCCCCN1C(=O)c2cccnc2N(C2CC2)c2ccccc21)NO; 1 to 5 µM
O=C(NO)c1cnc(N2CCn3c(nnc3C(F)(F)F)C2)nc1; 1 to 5 µM
O=C(NO)c1ccc(CN2C(=O)c3cccnc3N(C3CC3)c3ccccc32)cc1; 5 to 15 µM

We next turn to a different compound, shown below.
Entry under test: "O=C(CCCCCCOc1nc2ccccc2c2ccccc12)NO" . Its IC50 was 5 to 15 µM

====

Catalogue of IC50 readings, one per entry.
System: HDAC activity in primary mouse cortical cultures
Assay Summary: Whole-Cell Histone Deacetylase (HDAC) Inhibition Assay in Primary Mouse Cortical Cultures
Type: cell-based
Measurement Setup: whole-cell (WC), mouse cortical neurons; Table 10; read-out: HDAC Inhibition (IC50 μM) WC mouse cortical neurons

Some solved cases for reference:
O=C(NO)c1cnc(ON=C(c2ccccc2)c2ccccc2)nc1; 5 to 15 µM
O=C(CCCN1c2ccccc2C=Cc2ccccc21)NO; 5 to 15 µM
O=C(CCCCCCON=C1c2ccccc2CCc2ccccc21)NO; 1 to 5 µM
O=C(CCCCCCCN1C(=O)c2ccccc2Oc2ccccc21)NO; 1 to 5 µM
O=C(NO)c1cnc(NC(c2ccccc2)c2ccccc2)nc1; < 1 µM
O=C(NO)c1ccc(OCCN2C(=O)c3cc(F)ccc3Oc3ccccc32)cc1; < 1 µM

The compound listed as "O=C(CCCCCCC(=O)NC1c2ccccc2C=Cc2ccccc21)NO" has a reported IC50 of 1 to 5 µM

Lab note: "O=C(CCCCCCC(=O)N1c2ccccc2C=Cc2ccccc21)NO" gave IC50 of 5 to 15 µM

Kindly note the recorded IC50 for "O=C(NO)c1ccc(CN2C(=O)c3ccccc3CCc3ccccc32)cc1" , which is 1 to 5 µM

Looking up "O=C(NO)c1ccc(OCCN2CCOc3ccccc3C2=O)cc1" , I see its IC50 listed as 1 to 5 µM

// recorded IC50 for "O=C(CCCCCN1C(=O)c2ccccc2N(C2CC2)c2ccccc21)NO" : 1 to 5 µM

The recorded IC50 for entry "O=C(CCCCCCCN1C(=O)c2cccnc2N(C2CC2)c2ccccc21)NO" equals < 1 µM

The compound identified as "O=C(CCCCCCN1Cc2ccccc2Oc2ccccc21)NO" registered its IC50 at > 15 µM

====

Tested on: HDAC activity in primary mouse cortical cultures
Assay Summary: Whole-Cell Histone Deacetylase (HDAC) Inhibition Assay in Primary Mouse Cortical Cultures
Assay type: cell-based
Measurement Setup: whole-cell (WC), mouse cortical neurons; Table 8; read-out: HDAC Inhibition (IC50 μM) WC mouse cortical neurons
Below, each entry is listed alongside its reported IC50.

Use these answered entries as a reference point.
O=C(NO)c1ccc(C2=Nc3ccccc3Oc3c[n+]([O-])ccc32)cc1; 5 to 15 µM
O=C(NO)c1cnc(N2CCN(C3=Nc4ccccc4Oc4ccc(Cl)cc43)CC2)nc1; 5 to 15 µM
O=C(NO)c1ccc(C2=Nc3cc(Cl)ccc3Nc3ccccc32)cc1; 1 to 5 µM
O=C(NO)c1ccc(C2=Nc3ccccc3Oc3ccccc32)c(F)c1; 5 to 15 µM

Let's switch to this molecule now.
// "N#Cc1ccc2c(c1)Oc1ccccc1C(c1ccc(C(=O)NO)cc1)=N2" : IC50 value = 5 to 15 µM

Measured values drawn from patent US20170000749A1 for this set.
